molecular target: Genome polyprotein (dengue virus type 2, UniProt P29990); assay: Inhibition of NS2B-NS3 protease in DENV2proHeLa system assessed as inhibition of luciferase signal incubated for 24 hrs by luciferase reporter gene assay
Result type: log10 EC50 (log10 of the value in µM)
The base-10 logarithm of EC50, taken with EC50 in µM, is what appears here.

CCCCCC(=O)N[C@H](C(=O)Nc1cccc(C(N)=O)c1)c1ccc(OCc2ccccc2)cc1 0.66

Need log10 EC50 for each of these compounds.
1. N#Cc1ccc(Oc2ccc(C(=O)N[C@H](C(=O)Nc3cccc(C(N)=O)c3)c3ccc(OCc4ccccc4)cc3)cc2)cc1
2. CCCCCC(=O)N[C@H](C(=O)N1CCC(C(=O)Nc2ccccc2)CC1)c1ccc(OCc2ccccc2)cc1
3. CCCCCCCC(=O)N[C@H](C(=O)Nc1cccc(C(N)=O)c1)c1ccc(OCc2ccccc2)cc1
4. CCCCCC(=O)N[C@H](C(=O)Nc1ccc(C(N)=O)cc1)c1ccc(OCc2ccccc2)cc1
5. CCCCCC(=O)N[C@H](C(=O)NCCc1ccc(C(N)=O)cc1)c1ccc(OCc2ccccc2)cc1

// result
0.00
1.30
0.34
0.85
0.89

These data points were gathered from ChEMBL document CHEMBL4811254.
